MEASURE: melting point

Record request: melting point value, item O=c1c2c(CC3CCOCC3)n[nH]c2c2cccnc2n1-c1ccccc1 (hydrate or solvate) [Example 44] 228 to 234 °C

Similarly, O=c1c2c(CCC(F)(F)F)n[nH]c2c2cccnc2n1-c1ccccc1 [Example 14] ? 272 to 274 °C

Similarly, O=c1c2c(Cc3cccc(OC(F)(F)F)c3)n[nH]c2c2cccnc2n1-c1cccc(OC(F)(F)F)c1 [Example 27] ? 174 to 177 °C

Similarly, O=c1c2c(Cc3ccccc3)n[nH]c2c2cccnc2n1-c1cccc(C(F)(F)F)c1 (hydrate or solvate) [Example 2] ? 226 to 228 °C
